- systemName: T1, Human EphA2 (Ecto), C-terminal polyHis (Human, UniProt P29317 24-537)
- T1 construct: extracellular domain; R&D systems 3035-A2 or in-house
- T1 sequence (P29317 24-537): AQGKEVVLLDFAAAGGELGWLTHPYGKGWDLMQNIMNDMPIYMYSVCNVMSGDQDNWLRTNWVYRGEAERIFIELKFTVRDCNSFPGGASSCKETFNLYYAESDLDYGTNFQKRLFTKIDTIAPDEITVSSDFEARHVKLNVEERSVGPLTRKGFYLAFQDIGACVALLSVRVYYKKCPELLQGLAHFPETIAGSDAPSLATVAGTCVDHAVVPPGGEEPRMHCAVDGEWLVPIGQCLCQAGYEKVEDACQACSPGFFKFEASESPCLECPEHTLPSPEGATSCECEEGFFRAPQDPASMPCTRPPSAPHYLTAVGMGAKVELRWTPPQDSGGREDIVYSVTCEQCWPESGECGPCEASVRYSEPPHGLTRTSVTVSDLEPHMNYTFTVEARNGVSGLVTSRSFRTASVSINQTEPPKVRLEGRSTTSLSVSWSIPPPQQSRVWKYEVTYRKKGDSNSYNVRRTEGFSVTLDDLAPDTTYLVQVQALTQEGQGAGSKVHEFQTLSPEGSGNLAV
- assayOverview: FP competition vs Reference Compound C (Study 2)
*1 amine or outer side, *2 acyl side, *3 side chain or, on linkers, in order; H or OH if unused. Bridges are numbered along the chain shown (N, C = ends). Where no end group is shown, it is not given here. TATA = O=C(CC[*:1])N1CN(C(=O)CC[*:2])CN(C(=O)CC[*:3])C1
Recorded Ki for the following binders

binder	Ki (nM)
AXDCPLVNPLCLHPGWTC (not fully specified; as BCY6014 (N-terminal (β-Ala)-Sar10; HArg; TATA scaffold on the 3 Cys) + DM1-SS-(Me2)-, Bicycle drug conjugate (BDC)) [BCY6055]	15.8
Ac-CPLVNPLCLHPGWTCLHG (linker 1-8-15 via TATA; not fully specified (C-terminus); also: DM1-SS- conjugated, site not given here, Bicycle drug conjugate (BDC)) [BCY6035]	15.2
Ac-CPLVNPLCLHPGWTCLHG (linker 1-8-15 via TATA; not fully specified (C-terminus); also: ValCit-MMAE conjugated, site not given here, Bicycle drug conjugate (BDC)) [BCY6037]	7.3
AXDCPLVNPLCLHPGWTC (not fully specified; as BCY6014 (N-terminal (β-Ala)-Sar10; HArg; TATA scaffold on the 3 Cys) + Non-cleavable (DM1), Bicycle drug conjugate (BDC)) [BCY6064]	12.5
AXDCPLVNPLCLHPGWTC (not fully specified; as BCY6014 (N-terminal (β-Ala)-Sar10; HArg; TATA scaffold on the 3 Cys) + Non-cleavable (MMAE), Bicycle drug conjugate (BDC)) [BCY6063]	7.8
